Attribution: ChEMBL document CHEMBL4616635

Tested on: SW 1116
assay notes: Antiproliferative activity against human SW1116 cells assessed as inhibition of cell growth after overnight incubation by MTT assay
Type: functional, cell-based
pIC50 listing for selected compounds.
Convention used: pIC50 is expressed as -log10 of the molar concentration.

- compound: "O=C1[C@@H](Oc2ccc(Cl)cc2Cl)[C@@H](c2ccc(Cl)cc2)N1c1ccc(Nc2nc(N3CCOCC3)nc(N3CCOCC3)n2)cc1 (relative stereo)"
  pIC50: 4.06
- compound: "O=C1[C@@H](Oc2ccccc2)[C@@H](c2cccc([N+](=O)[O-])c2)N1c1ccc(Nc2nc(N3CCOCC3)nc(N3CCOCC3)n2)cc1 (relative stereo)"
  pIC50: 5.70
- compound: "O=[N+]([O-])c1cccc(/C=N/c2ccc(Nc3nc(N4CCOCC4)nc(N4CCOCC4)n3)cc2)c1"
  pIC50: 4.82
- compound: "COc1cccc2c1C(=O)c1c(O)c3c(c(O)c1C2=O)C[C@@](O)(C(=O)CO)C[C@@H]3O[C@H]1C[C@H](N)[C@H](O)[C@H](C)O1 [DOXORUBICIN]"
  pIC50: 5.16

Please look at the following compound next.
q: Please look up its pIC50: O=[N+]([O-])c1ccc(/C=N/c2ccc(Nc3nc(N4CCOCC4)nc(N4CCOCC4)n3)cc2)cc1
a: 5.48

###

IC50 for assorted molecules
System: SW 1116
assay notes: Antiproliferative activity against human SW1116 cells assessed as inhibition of cell growth after overnight incubation by MTT assay
Assay type: functional, cell-based

Solved cases below.
- molecule: "O=C1[C@@H](Oc2ccc(Cl)cc2)[C@@H](c2ccc(Oc3nc(N4CCOCC4)nc(N4CCOCC4)n3)cc2)N1c1ccc(Nc2nc(N3CCOCC3)nc(N3CCOCC3)n2)cc1"
  result: "> 100 µM"
- molecule: "CCOc1ccc(N2C(=O)[C@@H](Oc3ccc(Cl)cc3)[C@H]2c2ccc(Oc3nc(N4CCOCC4)nc(N4CCOCC4)n3)cc2)cc1 (relative stereo)"
  result: "1.53 µM"
- molecule: "O=C1[C@@H](Oc2ccc(Cl)cc2)[C@@H](c2ccc([N+](=O)[O-])cc2)N1c1ccc(Nc2nc(N3CCOCC3)nc(N3CCOCC3)n2)cc1 (relative stereo)"
  result: "4.88 µM"

Read the next record carefully.
q: Record request: IC50 value, item COc1ccc(N2C(=O)[C@@H](Oc3ccc(Cl)cc3Cl)[C@H]2c2ccc(Oc3nc(N4CCOCC4)nc(N4CCOCC4)n3)cc2)cc1 (relative stereo)
a: 2.7 µM

###

Tested on: SW 1116
assay notes: Antiproliferative activity against human SW1116 cells assessed as inhibition of cell growth after overnight incubation by MTT assay
Assay type: functional, cell-based
Quick list: pIC50 per entry.
Please note pIC50 is a logarithmic value: minus log10 of concentration in mol/L. Answer with that number alone.

- molecule: "O=C1N(c2ccc(Nc3nc(N4CCOCC4)nc(N4CCOCC4)n3)cc2)C(c2ccc(Cl)cc2)C12c1ccccc1Oc1ccccc12 (centres undefined)"
  pIC50: 5.69

q: What does the record list as pIC50 for Clc1ccc(/C=N/c2ccc(Nc3nc(N4CCOCC4)nc(N4CCOCC4)n3)cc2)cc1 ?
a: 4.03

q: For the molecule COc1ccc(N2C(=O)[C@@H](Oc3ccc(Cl)cc3)[C@H]2c2ccc(Oc3nc(N4CCOCC4)nc(N4CCOCC4)n3)cc2)cc1 (relative stereo) , what pIC50 is on record?
a: 4.52

q: So what's the measured pIC50 for this one? O=C1[C@@H](Oc2ccc(Cl)cc2)[C@@H](c2cccc([N+](=O)[O-])c2)N1c1ccc(Nc2nc(N3CCOCC3)nc(N3CCOCC3)n2)cc1 (relative stereo)
a: 4.00

q: # lookup: pIC50 of COc1ccc(N2C(=O)C3(c4ccccc4Oc4ccccc43)C2c2ccc(Oc3nc(N4CCOCC4)nc(N4CCOCC4)n3)cc2)cc1 (centres undefined)
a: 4.42

q: Data request, read-out pIC50, for O=C1[C@@H](Oc2ccccc2)[C@@H](c2ccc([N+](=O)[O-])cc2)N1c1ccc(Nc2nc(N3CCOCC3)nc(N3CCOCC3)n2)cc1 (relative stereo)
a: 4.76

q: Dear colleague, I am looking for the recorded pIC50 of the following molecule: CN(C)c1ccc(/N=C/c2ccc(Oc3nc(N4CCOCC4)nc(N4CCOCC4)n3)cc2)cc1
a: 4.81

q: Field request: pIC50 | item: O=C1[C@@H](Oc2ccc(Cl)cc2Cl)[C@@H](c2ccc([N+](=O)[O-])cc2)N1c1ccc(Nc2nc(N3CCOCC3)nc(N3CCOCC3)n2)cc1 (relative stereo)
a: 4.45
